Would you kindly list IC50 for each of these compounds?
Tested on: TNFα-FL/Gaussia Luciferase
TEST_SUMMARY: Dox Induced TNFα-FL-Gluc Assay
Type: cell-based
DETAILS: 24 hr Dox induction; 293FRT/TO cells; read-out: 24 hr Dox Inducible TNFaFLGluc 293FRT/TO: Mean IC50
Source text: Flp-In 293 T-REx™ cells were transfected with pcDNA™5/FRT/TO plasmid inserted with cDNA encoding Gaussia Luciferase fused to the 3′ end of cDNA encoding full length TNFα (amino acids 1-233). Transfected cells were selected for resistance to the selectable markers Hygromycin and Blasticidin to create a stable cell line that contained the TNFα-FL/Gaussia Luciferase cDNA insert whose expression was regulated under the T-REx™ system. […]
Numbers only, in µM.

>>> df
                                   compound  assay_readout  observed_measurement
0  COCCOc1ccc(N2CCC[C@@H]2c2csc(NC(=O)c3cccn3Cc3ccnc(F)c3)n2)cc1 [Compound A127]           IC50                 0.107
1  O=C(Nc1ccc(N2CCC[C@@H]2c2csc(NC(=O)c3cccn3Cc3ccnc(F)c3)n2)cc1)O[C@@H]1CCOC1 [Compound A171]           IC50                0.0719
2  Nc1ccc(N2CCC[C@@H]2c2csc(NC(=O)c3cccn3Cc3ccncc3)n2)cc1 [Compound A20]           IC50                 0.131
3  NC(=O)N1CCC(Oc2ccc(N3CCC[C@@H]3c3csc(NC(=O)c4cccn4Cc4ccnc(F)c4)n3)cn2)CC1 [Compound A159]           IC50                  0.79
4  O=C(Nc1nc([C@H]2CCCN2c2ccc(C3CCCCN3)cc2)cs1)c1cccn1Cc1ccncc1 (stereo partly drawn) [Compound A59]           IC50                  22.5

Batch: IC50 for all items listed.
1. CC(=O)NCc1ccc(N2CCC[C@@H]2c2csc(NC(=O)c3cccn3Cc3ccnc(F)c3)n2)cc1 [Compound A64]
2. NC(=O)N1CCC(Oc2ccc(N3CCC[C@@H]3c3csc(NC(=O)c4cccn4Cc4ccnc(F)c4)n3)cc2)CC1 [Compound A135]
3. COCc1ccc(N2CCC[C@@H]2c2csc(NC(=O)c3cccn3Cc3ccncc3)n2)cc1 [Compound A48]
4. NC(=O)N1CC(Oc2ccc(N3CCC[C@@H]3c3csc(NC(=O)c4cccn4Cc4ccnc(F)c4)n3)cc2)C1 [Compound A130]
5. CC(=O)N1CCC(C(C)c2ccc(N3CCC[C@@H]3c3csc(NC(=O)c4cccn4Cc4ccnc(F)c4)n3)cc2)CC1 (stereo partly drawn) [Compound A161]
6. CC(C)n1cnc(-c2ccccc2-c2csc(NC(=O)c3cccn3Cc3ccnc(F)c3)n2)c1 [Compound A169]

Response:
1. 0.164
2. 0.512
3. 0.101
4. 0.683
5. 4
6. 6.9
